Taken from patent US10829478B2.

Biological target: human ADAMTS-5 (Homo sapiens (Human), UniProt Q9UNA0)
Sequence (Q9UNA0 262-930): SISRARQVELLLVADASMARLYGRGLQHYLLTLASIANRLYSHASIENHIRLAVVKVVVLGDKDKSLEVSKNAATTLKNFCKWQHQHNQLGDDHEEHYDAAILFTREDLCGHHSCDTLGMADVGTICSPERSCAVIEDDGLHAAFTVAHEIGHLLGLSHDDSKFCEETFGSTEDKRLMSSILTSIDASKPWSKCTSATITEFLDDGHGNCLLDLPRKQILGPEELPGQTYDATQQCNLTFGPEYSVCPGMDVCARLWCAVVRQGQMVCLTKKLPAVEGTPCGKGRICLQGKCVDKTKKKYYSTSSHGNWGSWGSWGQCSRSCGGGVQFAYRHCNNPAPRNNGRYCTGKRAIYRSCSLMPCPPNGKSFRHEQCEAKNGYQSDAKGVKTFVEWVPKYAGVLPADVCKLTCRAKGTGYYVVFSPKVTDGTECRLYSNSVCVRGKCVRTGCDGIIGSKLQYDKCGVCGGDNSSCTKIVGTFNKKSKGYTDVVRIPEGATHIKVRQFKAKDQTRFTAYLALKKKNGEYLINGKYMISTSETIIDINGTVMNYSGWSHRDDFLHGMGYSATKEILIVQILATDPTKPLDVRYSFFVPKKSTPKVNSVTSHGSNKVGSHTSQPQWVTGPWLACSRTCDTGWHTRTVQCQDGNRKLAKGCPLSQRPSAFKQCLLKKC
Experiment: hADAMTS-5 TBIS-1 cleavage assay, Protocol 3
Assay type: biochemical
Settings: 90 min at 37° C., read-out: hADAMTS-5 potency IC50
# IC50 per entry
property label: IC50

>>> df
                                    compound  measured_value
 0  COC[C@]1(C[C@H](C)C(=O)N2CCN(c3cc(F)c(Cl)c(OC)c3)[C@@H](C)C2)NC(=O)NC1=O (mixture of isomers) [Cpd 121]     25 to 50 nM
 1  COc1cc(Cl)cc(N2CCN(C(=O)CC[C@@]3(C)NC(=O)NC3=O)C[C@@H]2C)c1 [Cpd 96]        > 100 nM
 2  CC[C@H]1CN(C(=O)CC[C@@]2(C)NC(=O)NC2=O)CCN1c1ccc(Cl)c(OC)c1 [Cpd 107]        > 100 nM
 3  COc1cc(OC)cc(N2CCN(C(=O)CCC3(C)NC(=O)NC3=O)C[C@@H]2C)c1 (stereo partly shown) [Cpd 25]        > 100 nM
 4  COc1cc(N2CCN(C(=O)CCC3(C)NC(=O)NC3=O)CC2)cc(F)c1F (stereo not shown) [Cpd 14]        > 100 nM
 5  COc1c(Cl)cccc1N1CCN(C(=O)CC[C@@]2(C)NC(=O)NC2=O)C[C@@H]1C [Cpd 69]        > 100 nM
 6  COc1cc(F)ccc1N1CCN(C(=O)CC[C@@]2(C)NC(=O)NC2=O)CC1 [Cpd 78]        > 100 nM
 7  COC[C@]1(C[C@H](C)C(=O)N2CCN(c3cc(F)c(F)c(OC)c3)CC2)NC(=O)NC1=O [Cpd 59]  0.001 to 25 nM
 8  COc1cc(N2CCN(C(=O)CC[C@@]3(C)NC(=O)NC3=O)C[C@@H]2C)cc(F)c1Cl [Cpd 119]  0.001 to 25 nM
 9  COc1ccccc1N1CCN(C(=O)CCC2(C)NC(=O)NC2=O)CC1 (stereo not shown) [Cpd 7]        > 100 nM
10  CCc1cc(N2CCN(C(=O)CC[C@@]3(C)NC(=O)NC3=O)C[C@@H]2C)cc(OC)c1Cl [Cpd 106]        > 100 nM
11  COc1cc(F)c(F)cc1N1CCN(C(=O)CC[C@@]2(C)NC(=O)NC2=O)C[C@@H]1C [Cpd 113]        > 100 nM
12  COc1cc(N2CCN(C(=O)CCC3(C)NC(=O)NC3=O)CC2)cc(Cl)c1Cl (stereo not shown) [Cpd 48]    50 to 100 nM
13  CCc1cc(N2CCN(C(=O)CC[C@@]3(C)NC(=O)NC3=O)CC2)ccc1Cl [Cpd 71]        > 100 nM
14  CCc1cccc(N2CCN(C(=O)CC[C@@]3(C)NC(=O)NC3=O)CC2)c1 [Cpd 70]        > 100 nM
15  COc1cc(Cl)c(C)cc1N1CCN(C(=O)CC[C@@]2(C)NC(=O)NC2=O)C[C@@H]1C [Cpd 95]        > 100 nM
16  COc1cc(N2CCN(C(=O)CC[C@@]3(C)NC(=O)NC3=O)CC2)cc(OC)c1F [Cpd 74]        > 100 nM
17  COc1cc(F)cc(N2CCN(C(=O)[C@H](C)C[C@@]3(C)NC(=O)NC3=O)CC2)c1 (stereo in doubt) [Cpd 131]        > 100 nM
18  COc1cc(Cl)ccc1N1CCN(C(=O)CC[C@@]2(C)NC(=O)NC2=O)CC1 [Cpd 73]        > 100 nM
19  COc1cc(N2CCN(C(=O)CC[C@@]3(C)NC(=O)NC3=O)C[C@@H]2C)cc(N(C)C)c1Cl [Cpd 99]        > 100 nM
20  COc1cc(N2CCN(C(=O)CCC3(C)NC(=O)NC3=O)CC2)cc(F)c1Cl (stereo not shown) [Cpd 38]        > 100 nM
21  COc1cc(N2CCN(C(=O)CC[C@H]3NC(=O)NC3=O)C[C@@H]2C)cc(F)c1F [Cpd 129]        > 100 nM
22  COc1cc(N2CCN(C(=O)CC[C@H]3NC(=O)NC3=O)C[C@@H]2C)c(C)cc1Cl [Cpd 142]        > 100 nM
23  COc1cc(N2CCN(C(=O)CC[C@@]3(C)NC(=O)NC3=O)C[C@@H]2C(C)C)ccc1Cl [Cpd 109]        > 100 nM
24  COC[C@]1(C[C@H](C)C(=O)N2CCN(c3cc(C)c(Cl)c(OC)c3)[C@@H](C)C2)NC(=O)NC1=O (mixture of isomers) [Cpd 126]     25 to 50 nM
